The measured values listed here are drawn from ChEMBL document CHEMBL1201862.

system: OVCAR-3; experiment: NCI tumour cell line growth inhibition, 48 h
Activity calls are given as the source filed them. Cut-off read from the data, not from the text of the source: active = GI50 up to about 1.1 µM and inactive = higher.
Bench note: report the call from active, inactive

• O=C1CCC(=O)N1n1c(Cc2ccc(Cl)cc2)n[nH]c1=O = inactive
• CCCOc1ccc(/C=C\c2cc(OC)c(OC)c(OC)c2)cc1 = inactive
• CN1CC[C@]23c4c5ccc(O)c4OC2c2[nH]ncc2C[C@H]3[C@H]1C5 (some centres not stated) = inactive
• CCC1(O)C(=O)OCc2c1cc1n(c2=O)Cc2cc3ccccc3nc2-1 (configuration not stated) = active
• CCCN(CCC)c1c([N+](=O)[O-])cc(C(=O)N(C)C)cc1[N+](=O)[O-] = inactive

Query :: What outcome does the record of this test show for COc1cccc(C(=O)C(O)c2cccc(OC)c2OC)c1OC (configuration not stated) ?
Result :: inactive

Query :: Entry to check: `N/C(=N\O)N/N=C/c1ccc(O)c(O)c1`
Result :: inactive

Query :: Repeat with `CN(C)C(=S)/N=c1\ss/c(=N\S(=O)(=O)c2ccccc2)n1-c1ccccc1`
Result :: inactive

Query :: Next record, please: `CC(C)(C)c1ccc(OCCOCCOc2ccc(C(C)(C)C)cc2S(=O)(=O)Nc2ccc([N+](=O)[O-])cc2)c(S(=O)(=O)Nc2ccc([N+](=O)[O-])cc2)c1`
Result :: inactive

Query :: `CN(C)c1ccc(/C=N/c2ccc(Oc3ccc(Cl)cc3)c(Cl)c2)cc1` ?
Result :: inactive

Query :: Same question for `Cc1ccc(-c2n[nH]c(=O)n2N2C(=O)C=CC2=O)cc1` please.
Result :: inactive

Query :: `Cc1ccccc1Nc1cn(COCc2ccccc2)c(=O)[nH]c1=O` , same question.
Result :: inactive
